Origin of measurements: PubChem BioAssay AID1996

settings: buffer; pH 7.4; 200.0 µM
quantity: solubility kinetic (µg/mL)
Report only the number, with the unit µg/mL understood.

Some compounds with recorded solubility kinetic:
> print(dat)
                                compound  recorded.result
1  O=[N+]([O-])c1ccc(NCCc2ccccc2)c(Br)c1              0.7
2           CCOc1ccc(N=C2SCC(=O)N2CC)cc1             33.6
3     O=C(Cc1cccs1)N1CCN=C1SCc1ccc(F)cc1               26
4       Cn1c(SCc2ccccc2C#N)nc2ccccc2c1=O                1

Then there is this compound:
INPUT: So what does the record say about solubility kinetic for O=C(COc1ccc(F)cc1Br)NCC1COc2ccccc2O1 (configuration not stated) ?
OUTPUT: 17.5
